System: OVCAR-4 ovarian
procedure-text: NCI tumour cell line growth inhibition, 48 h

>  <compound>
Cc1cc(C(C)C)cc(O)c(=O)c1

>  <TGI>
> 100 µM

$$$$
>  <compound>
O=C(/C=C/c1ccc(Br)cc1)c1ccc(NCc2nc3ccccc3[nH]2)cc1

>  <TGI>
> 62.6 µM

$$$$
>  <compound>
CCC(=O)OC1CCC2C3CCC(=O)OC3C(C)(CCC(=O)O)CC12C (stereo not given)

>  <TGI>
> 100 µM

$$$$
>  <compound>
CCOC(=O)N1Cc2ccoc2C1

>  <TGI>
> 100 µM

$$$$
>  <compound>
COc1ccc(Nc2nc3c(N)cc(C(F)(F)F)cc3nc2-c2ccccc2)cc1OC

>  <TGI>
33.8 µM

$$$$
